Reported inhibition at 10 µM values for the following compounds.
# target desc: PDE4D (Homo sapiens)
# Construct: purchased BPS Bioscience, San Diego
# Sequence (Q08499 whole entry): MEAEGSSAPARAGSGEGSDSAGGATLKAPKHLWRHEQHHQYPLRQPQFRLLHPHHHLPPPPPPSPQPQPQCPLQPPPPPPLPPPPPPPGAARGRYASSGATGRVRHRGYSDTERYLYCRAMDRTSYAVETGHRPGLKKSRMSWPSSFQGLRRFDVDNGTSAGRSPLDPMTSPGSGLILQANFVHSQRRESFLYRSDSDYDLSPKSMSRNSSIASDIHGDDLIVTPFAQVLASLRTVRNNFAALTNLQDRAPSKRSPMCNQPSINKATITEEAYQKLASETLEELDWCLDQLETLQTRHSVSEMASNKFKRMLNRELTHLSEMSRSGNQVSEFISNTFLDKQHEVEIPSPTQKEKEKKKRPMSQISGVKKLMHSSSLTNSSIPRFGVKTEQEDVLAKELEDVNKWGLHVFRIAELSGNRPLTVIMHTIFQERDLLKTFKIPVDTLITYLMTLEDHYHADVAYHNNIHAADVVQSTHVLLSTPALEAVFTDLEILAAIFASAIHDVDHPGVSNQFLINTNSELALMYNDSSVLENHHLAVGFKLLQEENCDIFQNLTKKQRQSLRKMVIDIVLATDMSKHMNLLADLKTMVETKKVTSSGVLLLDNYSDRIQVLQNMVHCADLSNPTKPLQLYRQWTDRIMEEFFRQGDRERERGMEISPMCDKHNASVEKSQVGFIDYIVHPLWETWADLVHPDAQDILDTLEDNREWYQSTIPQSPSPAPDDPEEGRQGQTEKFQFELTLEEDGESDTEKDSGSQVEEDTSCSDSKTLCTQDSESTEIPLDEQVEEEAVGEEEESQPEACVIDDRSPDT
# measurement notes: In vitro PDE4 inhibition study, PDE4D (BPS Bioscience)
# Format: binding
# condition notes: values in parentheses
Quick note: give the figure in %, leave out the unit.

Sample answers from the record:
# compound, inhibition at 10 µM, %
rows = [
    ("O=C(c1cc2cccnc2n1-c1ccc(Cl)c(Cl)c1)N1CCS(=O)(=O)CC1 [Compound 11]", 17),
    ("O=C(NCc1ccco1)c1cc2cccnc2n1-c1ccc(Cl)c(Cl)c1 [Compound 5]", 52),
    ("O=C(c1cc2cccnc2n1-c1ccc(Cl)c(Cl)c1)N1CCC2(CCC2)CC1 [Compound 12]", 29),
    ("O=C(c1cc2cccnc2n1-c1cc(F)c(Cl)c(F)c1)N1CC(F)C1 [Compound 25]", 62),
    ("O=C(NC1CCC1)c1cc2cccnc2n1-c1ccc(Cl)cc1 [Compound 32]", 28.2),
]

inhibition at 10 µM in this record for N#Cc1c(F)cc(-n2c(C(=O)NC3CC(F)(F)C3)cc3cccnc32)cc1F [Compound 29] : 18

inhibition at 10 µM in this record for O=C(NC1CC1)c1cc2cccnc2n1-c1ccc(Cl)cc1 [Compound 31] : 10.1

* * *

UniProt:Q07343: recorded pIC50 for assorted compounds
Entry type: numeric. Quantity: pIC50, the -log10 of concentration in molar units.

Sample answers from the record:
# query smiles, pIC50
data = [
    ("COc1ncc(-n2c(C(=O)N3CC(F)C3)cc3cccnc32)cc1Cl", 6.31),
    ("Cc1ccc(-n2c(C(=O)NC3CCC3)cc3cccnc32)cc1Cl", 5.64),
]

Simply: "O=C(NC1CC1)c1cc2cccnc2n1-c1cc(F)c(Cl)c(F)c1" , UniProt:Q07343, pIC50 = 5.85

Simply: "N#Cc1c(F)cc(-n2c(C(=O)NC3CC3)cc3cccnc32)cc1F" , UniProt:Q07343, pIC50 = 5.85

Simply: "N#Cc1c(F)cc(-n2c(C(=O)N3CC(F)C3)cc3cccnc32)cc1F" , UniProt:Q07343, pIC50 = 6.37

Simply: "O=C(NC1CCC1)c1cc2cccnc2n1-c1ccc(Cl)c(Cl)c1" , UniProt:Q07343, pIC50 = 5.96

Simply: "N#Cc1c(F)cc(-n2c(C(=O)NC3CCC3)cc3cccnc32)cc1F" , UniProt:Q07343, pIC50 = 5.74

* * *

# target desc: PDE4B (Homo sapiens)
# Construct: purchased BPS Bioscience, San Diego
# Sequence (Q07343 whole entry): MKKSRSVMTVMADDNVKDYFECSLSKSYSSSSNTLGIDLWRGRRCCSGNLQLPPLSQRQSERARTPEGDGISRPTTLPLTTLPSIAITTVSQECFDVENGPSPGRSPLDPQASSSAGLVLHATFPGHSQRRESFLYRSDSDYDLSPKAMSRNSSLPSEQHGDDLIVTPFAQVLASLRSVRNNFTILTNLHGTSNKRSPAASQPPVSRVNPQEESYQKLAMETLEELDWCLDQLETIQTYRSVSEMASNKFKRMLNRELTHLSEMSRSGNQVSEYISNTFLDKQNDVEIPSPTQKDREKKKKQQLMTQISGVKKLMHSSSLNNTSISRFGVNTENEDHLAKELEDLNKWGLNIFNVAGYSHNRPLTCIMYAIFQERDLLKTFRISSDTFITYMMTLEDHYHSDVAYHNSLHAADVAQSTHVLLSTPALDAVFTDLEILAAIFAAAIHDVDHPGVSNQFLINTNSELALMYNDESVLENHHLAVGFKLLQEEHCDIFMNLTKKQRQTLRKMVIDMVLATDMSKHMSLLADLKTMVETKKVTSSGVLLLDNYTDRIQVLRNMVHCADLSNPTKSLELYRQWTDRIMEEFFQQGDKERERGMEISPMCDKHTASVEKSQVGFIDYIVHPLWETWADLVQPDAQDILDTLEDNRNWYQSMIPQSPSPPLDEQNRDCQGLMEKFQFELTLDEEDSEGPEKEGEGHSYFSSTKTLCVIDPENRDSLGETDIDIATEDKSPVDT
# measurement notes: In vitro PDE4 inhibition study, PDE4B (BPS Bioscience)
# Type: binding
# condition notes: 10 μM; values in parentheses
Reported inhibition at 10 µM values for the following compounds.

Sample answers from the record:
# compound, inhibition at 10 µM
measured = [
    ("O=C(NCc1ccco1)c1cc2cccnc2n1-c1ccc(Cl)c(Cl)c1", "70%"),
    ("O=C(NC1CC(F)(F)C1)c1cc2cccnc2n1-c1ccc(Cl)c(Cl)c1", "23%"),
    ("COc1ccc(-n2c(C(=O)N3CC(F)C3)cc3cccnc32)cc1", "67%"),
    ("O=C(c1cc2cccnc2n1Cc1ccc(Cl)c(Cl)c1)N1CC(F)C1", "72%"),
    ("O=C(c1cc2cccnc2n1-c1ccc(Cl)c(Cl)c1)N1CCC2(CCC2)CC1", "50%"),
    ("N#Cc1c(F)cc(-n2c(C(=O)NC3CC(F)(F)C3)cc3cccnc32)cc1F", "47%"),
]

inhibition at 10 µM in this record for O=C(c1cc2cccnc2n1-c1ccc(Cl)c(Cl)c1)N1CCCC2(CCO2)C1 (stereo not shown) : 73%

inhibition at 10 µM in this record for N#Cc1c(F)cc(-n2c(C(=O)NC3CC(F)C3)cc3cccnc32)cc1F (stereo not shown) : 58%

inhibition at 10 µM in this record for "O=C(c1cc2cccnc2n1-c1ccc(Cl)c(Cl)c1)N1CCS(=O)(=O)CC1" : 39%

inhibition at 10 µM in this record for "O=C(c1cc2cccnc2n1-c1ccc(Cl)c(Cl)c1)N1CC2(CCNCC2)C1" : 33%
